# Tested on: E. coli (ATCC: 3008)
# assay.details: Agar well diffusion, inhibition zone
# Assay type: cell-based, Escherichia coli
# condition.details: E. coli (ATCC: 3008), Gram (−ve); agar well diffusion, 15 mg/mL; mean ± SD
reported.endpoint: diameter of the inhibition zone

molecule: CSc1c(C(=O)Nc2ccc(C)cc2)c(N)n(NS(=O)(=O)c2ccc(C)cc2)c(=O)c1-c1nc2ccccc2s1
reported.endpoint: diameter of the inhibition zone
value: −

molecule: COc1ccc(NC(=O)c2c(SC)c(-c3nc4ccccc4s3)c(=O)n(NS(=O)(=O)c3ccccc3)c2N)cc1
reported.endpoint: diameter of the inhibition zone
value: −

molecule: Cc1ccc(S(=O)(=O)Nn2c(N)c3c(N)n[nH]c3c(-c3nc4ccccc4s3)c2=O)cc1 [compound 11b]
reported.endpoint: diameter of the inhibition zone
value: 26.0 ± 1.0 mm

molecule: CSc1c(C(=O)Nc2ccccc2)c(N)n(NS(=O)(=O)c2ccc(C)cc2)c(=O)c1-c1nc2ccccc2s1
reported.endpoint: diameter of the inhibition zone
value: −

====

# Test system: C. albicans (ATCC: 10231)
# assay.details: Agar well diffusion, inhibition zone
# Format: cell-based, Candida albicans
# condition.details: C. albicans (ATCC: 10231), fungi, 15 mg/mL, mean ± SD
reported.endpoint: diameter of the inhibition zone

compound: O=C(Cc1nc2ccccc2s1)NNS(=O)(=O)c1ccccc1 [compound 3a]
reported.endpoint: diameter of the inhibition zone
value: −
--
compound: COc1ccc(NC(=O)c2c(SC)c(-c3nc4ccccc4s3)c(=O)n(NS(=O)(=O)c3ccccc3)c2N)cc1 [compound 9e]
reported.endpoint: diameter of the inhibition zone
value: −
--
compound: CSc1c(C(=O)Nc2ccc(C)cc2)c(N)n(NS(=O)(=O)c2ccccc2)c(=O)c1-c1nc2ccccc2s1 [compound 9c]
reported.endpoint: diameter of the inhibition zone
value: −
--
compound: Nc1n[nH]c2c(-c3nc4ccccc4s3)c(=O)n(NS(=O)(=O)c3ccccc3)c(N)c12 [compound 11a]
reported.endpoint: diameter of the inhibition zone
value: 21.0 ± 1.7 mm
--
compound: COc1ccc(NC(=O)c2c(SC)c(-c3nc4ccccc4s3)c(=O)n(NS(=O)(=O)c3ccc(C)cc3)c2N)cc1 [compound 9f]
reported.endpoint: diameter of the inhibition zone
value: −

Form field, diameter of the inhibition zone with C. albicans (ATCC: 10231), item CSc1c(C(=O)Nc2ccc(C)cc2)c(N)n(NS(=O)(=O)c2ccc(C)cc2)c(=O)c1-c1nc2ccccc2s1 [compound 9d] : 28.0 ± 0.7 mm

// returns diameter of the inhibition zone for CSc1c(C(=O)Nc2ccccc2)c(N)n(NS(=O)(=O)c2ccccc2)c(=O)c1-c1nc2ccccc2s1 [compound 9a] with C. albicans (ATCC: 10231); value = −

Param item: C[C@@H]1[C@H](O)[C@@H](C)/C=C/C=C/CC/C=C/C=C/C=C/C=C/C(O[C@H]2O[C@H](C)[C@@H](O)[C@H](N)[C@@H]2O)CC2O[C@](O)(CC(O)C(O)CCC(O)CC(O)CC(O)CC(=O)O[C@H]1C)CC(O)C2C(=O)O (stereo partly drawn) [Nystatin, reference compound] ; param system: C. albicans (ATCC: 10231); output diameter of the inhibition zone: 28.0 ± 0.1 mm

# CSc1c(C#N)c(N)n(NS(=O)(=O)c2ccccc2)c(=O)c1-c1nc2ccccc2s1 [compound 5a] with C. albicans (ATCC: 10231): diameter of the inhibition zone is 21.0 ± 1.0 mm

Measured diameter of the inhibition zone for this entry CSc1c(C#N)c(O)n(NS(=O)(=O)c2ccccc2)c(=O)c1-c1nc2ccccc2s1 [compound 5c] on C. albicans (ATCC: 10231): −

Value sought: diameter of the inhibition zone, system C. albicans (ATCC: 10231), item CSc1c(C#N)c(N)n(NS(=O)(=O)c2ccc(C)cc2)c(=O)c1-c1nc2ccccc2s1 [compound 5b] . Result: −

# diameter of the inhibition zone measured on C. albicans (ATCC: 10231) for item CSc1c(C(=O)Nc2ccccc2)c(N)n(NS(=O)(=O)c2ccc(C)cc2)c(=O)c1-c1nc2ccccc2s1 [compound 9b] = −

The measured diameter of the inhibition zone that CSc1c(C#N)c(O)n(NS(=O)(=O)c2ccc(C)cc2)c(=O)c1-c1nc2ccccc2s1 [compound 5d] showed for C. albicans (ATCC: 10231) is −

# lookup: Cc1ccc(S(=O)(=O)NNC(=O)Cc2nc3ccccc3s2)cc1 [compound 3b] on C. albicans (ATCC: 10231), diameter of the inhibition zone = −

====

# assayed.system: human DHFR (Homo sapiens)
# Sequence (P00374 1-187): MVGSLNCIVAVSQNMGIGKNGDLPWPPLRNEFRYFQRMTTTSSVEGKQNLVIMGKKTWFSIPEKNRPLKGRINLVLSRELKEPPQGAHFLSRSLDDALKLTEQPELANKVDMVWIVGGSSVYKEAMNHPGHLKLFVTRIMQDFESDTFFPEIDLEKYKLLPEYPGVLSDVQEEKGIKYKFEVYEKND
# assay.details: DHFR inhibitor screening kit
# Assay type: biochemical
# condition.details: read-out: Inhibition of DHFR enzyme
inhibition at 1 µg/mL overview

Consider the worked cases shown below.
compound: Cc1ccc(S(=O)(=O)NNC(=O)Cc2nc3ccccc3s2)cc1
assayed.system: human DHFR (Homo sapiens)
inhibition at 1 µg/mL: 60.9%

compound: CSc1c(C#N)c(N)n(NS(=O)(=O)c2ccc(C)cc2)c(=O)c1-c1nc2ccccc2s1
assayed.system: human DHFR (Homo sapiens)
inhibition at 1 µg/mL: 65%

Given item CSc1c(C#N)c(N)n(NS(=O)(=O)c2ccccc2)c(=O)c1-c1nc2ccccc2s1 , the value recorded as its inhibition at 1 µg/mL is 57.3%

Field inhibition at 1 µg/mL (entry Nc1n[nH]c2c(-c3nc4ccccc4s3)c(=O)n(NS(=O)(=O)c3ccccc3)c(N)c12 [compound 11a] ) reads 67%

inhibition at 1 µg/mL reported for this compound Cc1ccc(S(=O)(=O)Nn2c(N)c3c(N)n[nH]c3c(-c3nc4ccccc4s3)c2=O)cc1 [compound 11b] : 31.2%
